Target: 5-HT3 receptor (Mus musculus, UniProt P23979)
Construct: Harvested cells were homogenized in Tris buffer; endogenous in cells; host or cells: N1E-115 mouse neuroblastoma cells
Sequence (P23979 24-489): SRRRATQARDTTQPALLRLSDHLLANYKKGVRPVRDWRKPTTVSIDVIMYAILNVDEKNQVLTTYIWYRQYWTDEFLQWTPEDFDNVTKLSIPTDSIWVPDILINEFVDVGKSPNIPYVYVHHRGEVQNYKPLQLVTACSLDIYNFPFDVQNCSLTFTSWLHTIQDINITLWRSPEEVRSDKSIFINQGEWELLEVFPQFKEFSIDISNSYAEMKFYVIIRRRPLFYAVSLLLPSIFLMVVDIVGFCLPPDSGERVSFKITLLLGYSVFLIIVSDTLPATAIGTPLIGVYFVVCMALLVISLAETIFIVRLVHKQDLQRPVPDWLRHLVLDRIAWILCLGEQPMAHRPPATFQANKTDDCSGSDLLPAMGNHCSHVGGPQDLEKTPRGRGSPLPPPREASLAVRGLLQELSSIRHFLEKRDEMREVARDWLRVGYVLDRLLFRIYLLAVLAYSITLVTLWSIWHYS
Experiment: 5-HT3 receptor binding to N1E-115 neuroblastoma cells (3H-Quipazine displacement)
Conditions: specificity of the assay, N1E-115 neuroblastoma cells, in words
outcome.measure: displacement of 3H-Quipazine binding

1. CN1[C@@H]2CC[C@H]1C[C@@H](OC(=O)c1c[nH]c3ccccc13)C2 [ICS 205-930]	potent displacers
2. CCCN(CCC)C1CCc2cccc(O)c2C1 (stereo not drawn) [Example 8-OH-DPAT]	inability
3. O=C(c1ccc(F)cc1)C1CCN(CCn2c(=O)[nH]c3ccccc3c2=O)CC1 [ketanserin]	inability
4. COc1cc(N)c(Cl)cc1C(=O)NC1CN2CCC1CC2 (stereo not drawn) [zacopride]	potent displacers
5. CN1[C@@H]2CC[C@H]1C[C@@H](OC(=O)c1cc(Cl)cc(Cl)c1)C2 [MDL 72222]	potent displacers

Please report displacement of 3H-Quipazine binding with 5-HT3 receptor (Mus musculus, UniProt P23979) for item c1ccc2nc(N3CCNCC3)ccc2c1 [quipazine] .
potent displacers
